Reference for the values: PubChem BioAssay

Reported values of differentiation response for individual entries
PROCEDURE_SUMMARY: AML differentiation inducers, ER-HoxA9 marrow cells – cell-based, GFP/MAC1 double positive, flow cytometry, validation set, primary screen (AID 588685);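 note: compound exposure lasts four days before antibody staining and flow analysis; 0% = DMSO wells and 100% = 5 µM fulvestrant positive control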
RUN_CONDITIONS: stronger effect = higher value, normalized: vehicle 0, fulvestrant 100
The figure you give is taken to be in %; do not add the unit.

# COMPOUND, DISPLAY_UNIT, differentiation response
data = [
    ("COc1ccc2c(C=O)cn(C)c2c1", "%", 4.91),
    ("CC12CN3CC(C)(CN(C1)C3c1ccc(Br)cc1O)C2 (stereo unspecified)", "%", 2.89),
    ("Cc1ccc(C2=NOC(=O)/C2=C\\C=C\\c2ccccc2)cc1", "%", -4.57),
    ("OCCC1CN(Cc2nc(-c3ccccc3)cs2)CCN1Cc1ccc(F)cc1 (stereo unspecified)", "%", -6.03),
    ("O=C(CN1C(=O)c2ccccc2C1=O)Nc1cccc([N+](=O)[O-])c1", "%", -10.4),
]

Attention now turns to another entry.
GET /values?readout=differentiation response&item= COc1ccc(C2CC(c3ccc([N+](=O)[O-])cc3)=NN2C(=O)c2ccccc2)cc1OC (stereo unspecified) -12.9

###

PROCEDURE_SUMMARY: Nile Red efflux blockade in pump-expressing yeast – validation compound set, multiplex, phenotypic, pilot screen (AID 588506);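 note: Nile Red retained in cells so higher fluorescence means more efflux inhibition; 0 = negative control wells and 1 = enniatin B 25 µM full block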
RUN_CONDITIONS: S. cerevisiae pump-expressing triplex, Nile Red efflux flow cytometry; at 10 µM; stronger effect = higher value; the pumps come from Candida albicans
Binned efflux inhibition (fraction of control); ranges: lo: < -0.04; med: ≥ -0.04 and < 0.1; hi: ≥ 0.1

Answered cases to consult:
# COMPOUND, CLASS_NAME
records = [
    ("C/C=C/c1ccc(OCCCCN2CC(C)CC(C)C2)c(OC)c1 (stereo not drawn)", "med"),
    ("COc1ccc(C(CC(=O)N2CCOCC2)C(C)C)cc1 (stereo not drawn)", "lo"),
]

Hi, small favor: classify Cc1ccc2c(CC(=O)O)coc2c1 by its efflux inhibition (fraction of control) when you get a moment. med

Which efflux inhibition (fraction of control) band matches CN(C)CCC=C1c2ccccc2CCc2ccccc21 ? lo

Textbook exercise: identify the category of the compound given here, O=C(NCCO)c1ccc(Cl)c(Cl)c1 , according to its measured value. hi

For CCOCC(=O)Nc1ccccc1C(=O)N1CCOCC1 , which efflux inhibition (fraction of control) bin applies? hi

// bin(item) where item = COc1ccc(NC(=O)C2CCCN2C(=O)OC(C)(C)C)cc1 (stereo not drawn) lo

For the record Nc1nc2c(nc(SCc3ccccc3Br)n2C2OC(CO)C(O)C2O)c(=O)[nH]1 (stereo not drawn) , report the class its efflux inhibition (fraction of control) corresponds to. hi

Lab log: CC(C)(S)[C@@H](N)C(=O)O — assign efflux inhibition (fraction of control) category med

###

Tested on: anti-desmoglein-3 scFv antibody binding to human DSG3
PROCEDURE_SUMMARY: blockers of pathogenic pemphigus antibody–desmoglein-3 binding – biochemical, validation compound set, bead-based, flow cytometry, pilot screen (AID 588368);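 note: signal is the median channel fluorescence of bead-bound GFP antibody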
RUN_CONDITIONS: Protein G beads, DSG3-Fc, scFv-GFP binding, at 10 µM, stronger effect = lower value
Measured binding (% of control), listed per entry for reference.
Supply the numeric figure in %, leaving out any unit text.

# COMPOUND, VALUE
data = [
    ("Cc1c(OCC(F)(F)F)ccnc1CS(=O)c1nc2ccccc2[nH]1 (configuration not stated)", 106),
    ("O=C(/C=C/c1ccccc1)NCC1(c2ccccc2)CCOCC1", 97),
]

What binding (% of control) value was documented for this compound, Cc1ccccc1C(=O)Oc1ccc(Sc2ccc(O)cc2)cc1 ? 97.6

Returns the measured binding (% of control) for the input compound. Input: O=C(NO)c1ccccc1O 98.8

# binding (% of control) lookup, item CC(C)Oc1ccc2c(=O)c(-c3ccccc3)coc2c1 101

Find the recorded binding (% of control) belonging to COc1ccc(S(=O)(=O)NCc2ccco2)c2ccccc12 and report it. 96.3

Entry CC(C)CC(=O)NC(NC(=O)CC(C)C)c1cccc([N+](=O)[O-])c1 : reported binding (% of control) = ? 99

// binding (% of control) lookup, key: COc1c2ccoc2nc2c(OC)cccc12 97.2

Query: binding (% of control); subject: O=C(CCCN1C(=O)/C(=C\c2cccc(Br)c2)SC1=S)Nc1cccnc1 101

I am curious: what binding (% of control) value has been reported for O=C(NCCc1ccccc1)C1CCN(C2CCN(Cc3ccco3)CC2)CC1 ? 126

# input compound: CC(=O)[C@H]1[C@H](C#N)C[C@H]2[C@@H]3CC=C4C[C@@H](O)CC[C@]4(C)[C@H]3CC[C@@]21C ; wanted: its binding (% of control) 103

Using the record for Cc1[nH]nc(-c2ccc(O)cc2O)c1Oc1ccccc1 , report its binding (% of control). 96.3

Look up binding (% of control): COc1cc2c(cc1OC)CN(C(=O)c1ccc(S(=O)(=O)N(C)c3ccccc3)cc1)CC2 96.2

Given the entry CCC(CO)NCCNC(CC)CO (configuration not stated) , report its measured binding (% of control). 103
